Data provenance: patent US6642225B2

Molecular target: human LFA-1 (Homo sapiens, UniProt P20701)
Construct: endogenous in cells
Sequence (P20701 26-1170): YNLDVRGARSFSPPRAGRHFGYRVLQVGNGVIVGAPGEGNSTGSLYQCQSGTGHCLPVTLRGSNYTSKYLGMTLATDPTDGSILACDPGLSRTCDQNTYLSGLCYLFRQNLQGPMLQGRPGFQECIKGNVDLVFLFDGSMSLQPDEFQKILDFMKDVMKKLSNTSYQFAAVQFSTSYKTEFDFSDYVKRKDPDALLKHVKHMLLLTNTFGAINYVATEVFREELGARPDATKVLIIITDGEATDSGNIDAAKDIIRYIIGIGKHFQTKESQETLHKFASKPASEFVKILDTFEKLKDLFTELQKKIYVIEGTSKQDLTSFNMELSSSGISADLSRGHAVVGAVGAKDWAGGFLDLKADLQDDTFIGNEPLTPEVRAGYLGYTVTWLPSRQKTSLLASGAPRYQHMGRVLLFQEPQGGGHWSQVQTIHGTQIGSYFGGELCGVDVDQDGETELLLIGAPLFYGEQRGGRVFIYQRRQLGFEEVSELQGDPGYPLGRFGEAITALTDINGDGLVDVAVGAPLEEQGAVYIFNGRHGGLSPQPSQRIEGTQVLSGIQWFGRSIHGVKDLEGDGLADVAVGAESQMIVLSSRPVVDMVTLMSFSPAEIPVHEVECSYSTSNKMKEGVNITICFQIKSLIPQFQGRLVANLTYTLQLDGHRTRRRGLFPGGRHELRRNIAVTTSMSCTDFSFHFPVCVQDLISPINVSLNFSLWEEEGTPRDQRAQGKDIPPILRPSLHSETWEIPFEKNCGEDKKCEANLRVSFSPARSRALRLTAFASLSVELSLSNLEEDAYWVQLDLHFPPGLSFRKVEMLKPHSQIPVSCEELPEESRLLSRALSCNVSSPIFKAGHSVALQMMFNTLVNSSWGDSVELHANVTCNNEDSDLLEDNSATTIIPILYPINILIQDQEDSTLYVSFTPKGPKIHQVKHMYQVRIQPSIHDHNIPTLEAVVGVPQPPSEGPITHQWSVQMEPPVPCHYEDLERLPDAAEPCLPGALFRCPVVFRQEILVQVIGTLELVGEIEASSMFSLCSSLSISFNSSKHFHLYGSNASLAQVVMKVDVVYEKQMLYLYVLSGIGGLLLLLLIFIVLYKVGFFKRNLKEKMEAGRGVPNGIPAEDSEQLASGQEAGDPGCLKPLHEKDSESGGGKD
Sequence (P05107 23-769 partner): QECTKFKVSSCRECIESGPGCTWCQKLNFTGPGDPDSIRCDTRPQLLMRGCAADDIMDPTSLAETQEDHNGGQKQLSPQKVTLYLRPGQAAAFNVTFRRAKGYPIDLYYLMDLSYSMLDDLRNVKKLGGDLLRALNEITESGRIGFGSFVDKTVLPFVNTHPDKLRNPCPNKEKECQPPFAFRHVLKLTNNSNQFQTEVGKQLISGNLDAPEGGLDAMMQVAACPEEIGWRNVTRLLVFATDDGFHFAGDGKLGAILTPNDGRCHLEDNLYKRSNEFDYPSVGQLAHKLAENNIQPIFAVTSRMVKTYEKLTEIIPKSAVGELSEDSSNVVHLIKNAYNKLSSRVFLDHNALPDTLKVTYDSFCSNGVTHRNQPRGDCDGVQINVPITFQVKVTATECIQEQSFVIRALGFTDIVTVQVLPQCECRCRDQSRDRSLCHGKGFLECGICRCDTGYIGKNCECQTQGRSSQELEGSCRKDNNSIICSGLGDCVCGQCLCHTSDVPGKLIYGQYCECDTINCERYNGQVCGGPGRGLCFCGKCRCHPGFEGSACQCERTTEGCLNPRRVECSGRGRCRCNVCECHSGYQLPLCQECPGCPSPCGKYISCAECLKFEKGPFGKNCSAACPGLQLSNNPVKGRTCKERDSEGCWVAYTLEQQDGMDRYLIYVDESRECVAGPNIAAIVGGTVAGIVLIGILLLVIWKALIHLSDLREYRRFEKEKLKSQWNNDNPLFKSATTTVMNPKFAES
Assay: Cell free assay: binding of soluble human ICAM-1 to immobilized human LFA-1
VALUE_TYPE: IC50

CNC(=O)[C@H](Cc1ccc2ccccc2c1)N1CCC(=O)N(Cc2cnc3ccccc3c2)[C@@H](CC(C)C)C1=O    ~30 nM
